SYSTEM_TESTED: MBP-TbtD
ASSAY_PROTOCOL: fluorescence polarisation
pKd: −log10 of the molar value. Ends that are not written are not given here. * marks the point of attachment. FITC = O=C1OC2(c3ccc(O)cc3Oc3cc(O)ccc32)c2ccc(NC(=S)*)cc21

BINDER	pKd
{FITC}-MDLNDLPMDVFELADSGVAVESLTAGHGMTEVGA [synthetic TbtA leader peptide derivatized with fluorescein isothiocyanate (FITC) at the N-terminus]	~6.85

src = paper PMC5148741
